The values you see were collected from patent US6303625A.

# ASSAYED TARGET: GPIIb/IIIa (Homo sapiens, UniProt P05106+P08514)
# Sequence (P08514 32-887 limits assumed): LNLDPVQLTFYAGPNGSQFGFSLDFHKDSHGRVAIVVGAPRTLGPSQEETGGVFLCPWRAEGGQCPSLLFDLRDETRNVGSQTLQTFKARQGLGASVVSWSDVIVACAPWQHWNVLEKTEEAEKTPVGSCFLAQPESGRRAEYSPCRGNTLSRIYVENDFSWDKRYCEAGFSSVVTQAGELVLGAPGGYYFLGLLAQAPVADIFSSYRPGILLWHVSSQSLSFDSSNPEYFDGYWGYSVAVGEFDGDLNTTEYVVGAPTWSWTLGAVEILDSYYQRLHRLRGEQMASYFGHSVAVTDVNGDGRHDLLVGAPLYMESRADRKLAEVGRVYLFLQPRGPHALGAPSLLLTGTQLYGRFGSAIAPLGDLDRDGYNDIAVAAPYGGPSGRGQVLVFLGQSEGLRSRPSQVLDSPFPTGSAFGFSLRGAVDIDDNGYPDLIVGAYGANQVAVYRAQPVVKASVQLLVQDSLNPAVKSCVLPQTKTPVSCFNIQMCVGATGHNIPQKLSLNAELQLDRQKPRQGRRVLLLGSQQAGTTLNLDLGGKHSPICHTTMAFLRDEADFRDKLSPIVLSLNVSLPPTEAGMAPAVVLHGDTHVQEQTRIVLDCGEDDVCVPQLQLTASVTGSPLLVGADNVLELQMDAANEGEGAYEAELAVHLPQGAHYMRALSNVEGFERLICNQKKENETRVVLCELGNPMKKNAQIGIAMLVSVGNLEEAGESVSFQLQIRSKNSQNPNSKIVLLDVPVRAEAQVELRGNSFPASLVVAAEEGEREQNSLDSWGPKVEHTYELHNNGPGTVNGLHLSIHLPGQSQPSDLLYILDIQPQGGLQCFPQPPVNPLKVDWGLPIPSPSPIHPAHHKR
# Sequence (P08514 891-1039 limits assumed): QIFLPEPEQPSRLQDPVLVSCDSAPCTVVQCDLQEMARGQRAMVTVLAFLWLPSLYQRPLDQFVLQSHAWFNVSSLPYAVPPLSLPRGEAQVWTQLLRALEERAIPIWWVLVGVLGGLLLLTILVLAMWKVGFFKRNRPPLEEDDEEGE
# Sequence (P05106 27-788): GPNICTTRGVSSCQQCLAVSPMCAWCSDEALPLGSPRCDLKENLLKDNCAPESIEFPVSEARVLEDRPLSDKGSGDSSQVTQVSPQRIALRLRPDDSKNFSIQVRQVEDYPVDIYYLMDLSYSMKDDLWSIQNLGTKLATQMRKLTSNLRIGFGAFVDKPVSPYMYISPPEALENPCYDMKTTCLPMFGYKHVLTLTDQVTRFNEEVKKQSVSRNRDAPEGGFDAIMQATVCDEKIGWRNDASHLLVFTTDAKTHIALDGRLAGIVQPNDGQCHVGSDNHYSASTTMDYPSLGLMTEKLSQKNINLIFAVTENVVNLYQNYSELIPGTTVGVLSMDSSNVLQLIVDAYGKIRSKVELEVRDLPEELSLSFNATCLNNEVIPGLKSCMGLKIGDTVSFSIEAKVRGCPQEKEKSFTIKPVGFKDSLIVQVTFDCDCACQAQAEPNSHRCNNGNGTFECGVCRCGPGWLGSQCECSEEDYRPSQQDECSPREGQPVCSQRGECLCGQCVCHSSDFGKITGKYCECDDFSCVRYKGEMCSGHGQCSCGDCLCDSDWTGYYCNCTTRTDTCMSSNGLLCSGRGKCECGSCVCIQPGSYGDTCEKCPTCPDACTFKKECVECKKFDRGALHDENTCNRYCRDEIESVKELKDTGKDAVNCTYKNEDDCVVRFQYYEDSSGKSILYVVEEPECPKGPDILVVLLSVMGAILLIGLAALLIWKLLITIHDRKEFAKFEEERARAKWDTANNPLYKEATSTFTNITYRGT
# ASSAY REMARKS: In vitro solid phase purified glycoprotein IIb/IIIa binding assay (fibrinogen binding)
REPORTED ENDPOINT: pIC50
Answers are plain numbers, as −log10 of the molar value.

Examples with answers:
So what does the record say about pIC50 for O=C(O)C[C@H](NC(=O)c1cccn2c(CCC3CCNCC3)nnc12)c1cccnc1 [Compound 17] ?
6.35

Entry to check: O=C(O)C[C@H](NC(=O)C1CCCn2c(/C=C/C3CCNCC3)nnc21)c1cccnc1 (stereo partly drawn) [Compound 12]
9.85

And the next one, CC1(C(=O)NC[C@H](NC(=O)OCc2ccccc2)C(=O)O)CCCn2c(CCC3CCNCC3)nnc21 (stereo partly drawn) [Compound 8] ?
7.74

Provide the reported pIC50 of each entry below, same order.
1. O=C(O)CC(NC(=O)C1CCCn2c(/C=C/C3CCNCC3)nnc21)c1ccncc1 (stereo not drawn) [Compound 10]
2. O=C(NC[C@H](NS(=O)(=O)Cc1ccccc1)C(=O)O)C1CCCn2c(/C=C/C3CCNCC3)nnc21 (stereo partly drawn) [Compound 14]
3. O=C(O)CC(NC(=O)C1CCCn2c(CCC3CCNCC3)nnc21)c1ccsc1 (stereo not drawn) [Compound 7]
4. O=C(N[C@@H](CNC(=O)C1CCCn2c(/C=C/C3CCNCC3)nnc21)C(=O)O)OCc1ccccc1 (stereo partly drawn) [Compound 5]

1. 9.03
2. 9.29
3. 9.12
4. 10.00

Give one value of pIC50 per listed compound.
1. CCN(CC)C(=O)COC(=O)C[C@H](NC(=O)C1CCCn2c(CCC3CCNCC3)nnc21)c1cccnc1 (stereo partly drawn) [Compound 4]
2. O=C(O)C[C@H](NC(=O)C1CCCn2c(/C=C/C3CCNCC3)nnc21)c1cnc2ccccc2c1 (stereo partly drawn) [Compound 13]

1. 7.35
2. 9.36
